assay: KKLEB cell viability reduction – uHTS, fluorescence assay plates, cytotoxicity control for CF NF-kB inhibitor project, primary screen (AID 602141); conditions: KKLEB CF airway cells viability, ATPlite luminescence, overnight; at 5 µM; cells stimulated with P. aeruginosa culture filtrate
Screen size: about 360,000 compounds; about 1,300 (0.36%) were called active.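 The calls were made as follows: active = corrected activity change at or below -50% at 5 µM; inactive = the rest.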 The list comes from a sample in which actives are over-represented; it also holds close analogues and randomly drawn compounds.
Give one outcome, nothing more. List: t (active), f (inactive)

Data request: Dear colleague, could you share the recorded outcome for CC(Oc1ccc(F)cc1F)C(=O)/C=C/N(C)C (centres undefined) when you have a moment?
Data returned: f

Data request: Dear colleague, could you share the recorded outcome for NC(c1ccccc1)c1csc(NC(=O)Nc2cccc(C(F)(F)F)c2)n1 (centres undefined) when you have a moment?
Data returned: f

Data request: Dear colleague, could you share the recorded outcome for "Cc1csc(NC(=O)CSc2ccc(-c3ccc(F)cc3)nn2)n1" when you have a moment?
Data returned: f

Data request: Dear colleague, could you share the recorded outcome for "O=C(NCc1cccnc1)c1nc(-c2cccs2)no1" when you have a moment?
Data returned: f

Data request: Dear colleague, could you share the recorded outcome for NC(c1csc(NC(=O)Nc2cccc(C(F)(F)F)c2)n1)C1CCCCC1 (centres undefined) when you have a moment?
Data returned: t

Data request: Dear colleague, could you share the recorded outcome for COc1ccc(C(N)c2csc(NC(=O)Nc3cccc(C(F)(F)F)c3)n2)cc1 (centres undefined) when you have a moment?
Data returned: f

Data request: Dear colleague, could you share the recorded outcome for c1ccc2c(c1)OCC(c1nn3cnnc3s1)O2 (centres undefined) when you have a moment?
Data returned: f

Data request: Dear colleague, could you share the recorded outcome for "COc1ccc(C(=O)CCC(=O)Nc2cccnc2)c(OC)c1" when you have a moment?
Data returned: f

Data request: Dear colleague, could you share the recorded outcome for "COC(=O)c1sc(NC(=O)c2ccc(OC)cc2OC)nc1C" when you have a moment?
Data returned: t

Data request: Dear colleague, could you share the recorded outcome for "Cc1cccc(NC(=S)N2CCC(O)CC2)c1C" when you have a moment?
Data returned: f

Data request: Dear colleague, could you share the recorded outcome for Cc1noc(C)c1C(=O)OC(C)C(=O)Nc1ccc2c(c1)OCO2 (centres undefined) when you have a moment?
Data returned: f

Data request: Dear colleague, could you share the recorded outcome for O=C(NCC1CCCO1)c1ccccc1-c1nc(-c2ccccc2Cl)no1 (centres undefined) when you have a moment?
Data returned: f

Data request: Dear colleague, could you share the recorded outcome for "O=C1CCCN1C(=O)COc1ccc([N+](=O)[O-])cc1" when you have a moment?
Data returned: f

Data request: Dear colleague, could you share the recorded outcome for "COC(=O)c1cc(NC(=O)c2nn(C)c(=O)c3ccccc23)cc(C(=O)OC)c1" when you have a moment?
Data returned: f
